# study.target: cyno MSLN (Macaca fascicularis)
# assay.remarks: BLI (Octet), bsAb in 1+1 Fab-scFv-Fc format
Listed below: kon values for each entry.
Numbers only; they are read as M⁻¹ s⁻¹.

Worked set:
XENP32566 (bispecific antibody, part only; not given: anti-CD3 scFv-Fc arm, constant regions, V domains shown, not shown: another chain or arm of the molecule; a dimerising Fc or GST; small tags and cut ends) VH: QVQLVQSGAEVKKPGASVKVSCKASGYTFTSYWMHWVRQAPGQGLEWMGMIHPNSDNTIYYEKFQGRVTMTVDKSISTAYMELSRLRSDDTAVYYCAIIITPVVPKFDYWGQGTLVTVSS VL: DIVMTQSPDSLAVSLGERATINCKASHDVGTSVAWYQQKPGQSPKLLIYWASTRHSGVPDRFTGSGSGTDFTLTISSLQAEDVAVYFCQQYSSYPLTFGAGTKLEIK; 616000
XENP32564 (bispecific antibody, part only; not given: anti-CD3 scFv-Fc arm, constant regions, V domains shown, not shown: another chain or arm of the molecule; a dimerising Fc or GST; small tags and cut ends) VH: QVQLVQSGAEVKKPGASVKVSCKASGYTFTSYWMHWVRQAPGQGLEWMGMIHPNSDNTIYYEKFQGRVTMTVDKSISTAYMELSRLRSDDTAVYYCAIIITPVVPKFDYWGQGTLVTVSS VL: DIVMTQSPDSLAVSLGERATINCKASHDVGTSLAWYQQKPGQSPKLLIYWASTRHTGVPDRFTGSGSGTDFTLTISSLQAEDVAVYFCQQYSSYPLTFGAGTKLEIK; 676000
XENP32559 (bispecific antibody, part only; not given: anti-CD3 scFv-Fc arm, constant regions, V domains shown, not shown: another chain or arm of the molecule; a dimerising Fc or GST; small tags and cut ends) VH: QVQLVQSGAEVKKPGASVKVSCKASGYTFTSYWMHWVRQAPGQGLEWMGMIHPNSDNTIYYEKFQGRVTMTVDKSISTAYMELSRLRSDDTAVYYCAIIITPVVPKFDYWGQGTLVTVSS VL: DIVMTQSPDSLAVSLGERATINCKSSHDVGTSVAWYQQKPGQSPKLLIYWASTRHTGVPDRFTGSGSGTDFTLTISSLQAEDVAVYFCQQYSSYPLTFGAGTKLEIK; 575000

In the following, a different binder is considered.
Output measured kon for this item: XENP32554 (bispecific antibody, part only; not given: anti-CD3 scFv-Fc arm, constant regions, V domains shown, not shown: another chain or arm of the molecule; a dimerising Fc or GST) VH: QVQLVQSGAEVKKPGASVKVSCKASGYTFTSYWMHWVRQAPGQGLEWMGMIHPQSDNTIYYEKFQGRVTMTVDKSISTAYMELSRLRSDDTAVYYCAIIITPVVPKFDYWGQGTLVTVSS VL: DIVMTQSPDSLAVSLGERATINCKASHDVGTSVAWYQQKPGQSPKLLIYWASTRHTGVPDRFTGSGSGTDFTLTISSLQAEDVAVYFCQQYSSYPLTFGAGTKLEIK
555000
